Data credit: paper PMC12501029

tested.system: GSK3β-HiBiT (GSK3β-HiBiT KI HEK293 cells) (Homo sapiens, UniProt P49841)
Construct: we generated endogenously tagged GSK3β-HiBiT knock-in (KI) HEK293 cells; endogenous in cells; host or cells: GSK3β-HiBiT knock-in HEK293 cells (CRISPR/Cas9, single-cell clone)
Sequence (P49841 whole entry): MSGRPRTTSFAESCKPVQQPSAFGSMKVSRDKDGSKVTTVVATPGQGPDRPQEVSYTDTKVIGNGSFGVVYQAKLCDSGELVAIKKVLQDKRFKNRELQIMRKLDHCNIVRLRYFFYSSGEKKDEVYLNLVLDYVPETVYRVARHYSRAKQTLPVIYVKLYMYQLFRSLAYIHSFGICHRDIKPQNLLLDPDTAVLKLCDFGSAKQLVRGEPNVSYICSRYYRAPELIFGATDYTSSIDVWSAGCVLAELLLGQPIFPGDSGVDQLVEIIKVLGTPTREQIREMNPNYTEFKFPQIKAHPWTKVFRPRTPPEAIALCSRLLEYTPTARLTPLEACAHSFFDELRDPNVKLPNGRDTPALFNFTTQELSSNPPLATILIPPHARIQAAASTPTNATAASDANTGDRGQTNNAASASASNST
assay.remarks: HiBiT lytic degradation assay / high-throughput screen, 24 h
Format: cell-based
condition.notes: HEK293, pure (resynthesised, HPLC purified) compound, 24 h treatment
Listing of entries alongside the reported Dmax.

molecule: O=C1CCC(NC(=O)c2ccc(CN3CCN(CCCc4cn(-c5ccc(-c6cn7nccc(C(=O)Nc8cnccc8N8CCOCC8)c7n6)cc5)nn4)CC3)cn2)C(=O)N1 (stereo not shown) [compound 23]
unit.tag: %
Dmax: 73
//
molecule: Cn1nc(N2CCC(=O)NC2=O)c2ccc(CN3CCN(Cc4ccc(-c5cn(-c6ccc(-c7cn8nccc(C(=O)Nc9cnccc9N9CCOCC9)c8n7)cc6)nn5)nc4)CC3)cc21 [compound 24]
unit.tag: %
Dmax: 93
//
molecule: O=C1CCC(NC(=O)c2ccc(CN3CCN(Cc4ccc(-c5cn(-c6ccc(-c7cn8nccc(C(=O)Nc9cnccc9N9CCOCC9)c8n7)cc6)nn5)nc4)CC3)cn2)C(=O)N1 (stereo not shown) [compound 22]
unit.tag: %
Dmax: 87
//
molecule: Cn1nc(N2CCC(=O)NC2=O)c2ccc(CN3CCN(CCCc4cn(-c5ccc(-c6cn7nccc(C(=O)Nc8cnccc8N8CCOCC8)c7n6)cc5)nn4)CC3)cc21 [compound 26]
unit.tag: %
Dmax: 80

* * *

assay.remarks: Discrete i.v./p.o. KH1 (24) PK study and brain penetration
Assay type: in vivo, female Balb/c mice
condition.notes: female, Balb/c, mouse, whole blood, iv, 0.37 mg/kg; read-out: Cl_obs
measurement.type: clearance (mL/min/kg)

sample.smiles: Cn1nc(N2CCC(=O)NC2=O)c2ccc(CN3CCN(Cc4ccc(-c5cn(-c6ccc(-c7cn8nccc(C(=O)Nc9cnccc9N9CCOCC9)c8n7)cc6)nn5)nc4)CC3)cc21
measurement.type: clearance
unit.tag: mL/min/kg
endpoint.value: 10

* * *

assay.remarks: Plasma protein binding, equilibrium dialysis, human
Type: in vitro ADME
condition.notes: 5 h dialysis, read-out: Plasma Protein Binding (Fu) Hu

compound: Cn1nc(N2CCC(=O)NC2=O)c2ccc(CN3CCN(Cc4ccc(-c5cn(-c6ccc(-c7cn8nccc(C(=O)Nc9cnccc9N9CCOCC9)c8n7)cc6)nn5)nc4)CC3)cc21 [compound 24]
fraction unbound at 5 h, 10 μg/mL: 0.0072

compound: Cn1nc(N2CCC(=O)NC2=O)c2ccc(CN3CCN(CCCc4cn(-c5ccc(-c6cn7nccc(C(=O)Nc8cnccc8N8CCOCC8)c7n6)cc5)nn4)CC3)cc21 [compound 26]
fraction unbound at 5 h, 10 μg/mL: 0.05

* * *

assay.remarks: Discrete i.v./p.o. KH1 (24) PK study and brain penetration
Assay type: in vivo, female Balb/c mice
condition.notes: female, Balb/c, mouse, whole blood; Oral, 3 mg/kg

sample.smiles: Cn1nc(N2CCC(=O)NC2=O)c2ccc(CN3CCN(Cc4ccc(-c5cn(-c6ccc(-c7cn8nccc(C(=O)Nc9cnccc9N9CCOCC9)c8n7)cc6)nn5)nc4)CC3)cc21
Cmax (ng/mL): 19

* * *

assay.remarks: Intrinsic clearance (Cli), human liver microsomes
Type: in vitro ADME
condition.notes: 0.5 µM, scaling factor 40 mg microsomal protein per g liver

compound: O=C1CCC(NC(=O)c2ccc(CN3CCN(Cc4ccc(-c5cn(-c6ccc(-c7cn8nccc(C(=O)Nc9cnccc9N9CCOCC9)c8n7)cc6)nn5)nc4)CC3)cn2)C(=O)N1 (stereo not shown) [compound 22]
unit.tag: ml/min/g liver
Scaled Microsomal Stability HuClint: 3.6
--
compound: O=C1CCC(NC(=O)c2ccc(CN3CCN(CCCCCc4cn(-c5ccc(-c6cn7nccc(C(=O)Nc8cnccc8N8CCOCC8)c7n6)cc5)nn4)CC3)cc2F)C(=O)N1 (stereo not shown) [compound 21]
unit.tag: ml/min/g liver
Scaled Microsomal Stability HuClint: 27
--
compound: Cn1nc(N2CCC(=O)NC2=O)c2ccc(CN3CCN(CCCc4cn(-c5ccc(-c6cn7nccc(C(=O)Nc8cnccc8N8CCOCC8)c7n6)cc5)nn4)CC3)cc21 [compound 26]
unit.tag: ml/min/g liver
Scaled Microsomal Stability HuClint: 1.6
--
compound: Cn1nc(N2CCC(=O)NC2=O)c2ccc(CN3CCN(Cc4ccc(-c5cn(-c6ccc(-c7cn8nccc(C(=O)Nc9cnccc9N9CCOCC9)c8n7)cc6)nn5)nc4)CC3)cc21 [compound 24]
unit.tag: ml/min/g liver
Scaled Microsomal Stability HuClint: 0.88

* * *

assay.remarks: Discrete i.v./p.o. KH1 (24) PK study and brain penetration
Format: in vivo, female Balb/c mice
condition.notes: female, Balb/c, mouse, plasma (unbound), intravenous; 2 h, 0.37 mg/kg, using predicted free fractions; read-out: unbound total plasma concentration

sample.smiles: Cn1nc(N2CCC(=O)NC2=O)c2ccc(CN3CCN(Cc4ccc(-c5cn(-c6ccc(-c7cn8nccc(C(=O)Nc9cnccc9N9CCOCC9)c8n7)cc6)nn5)nc4)CC3)cc21
concentration at 2 h: 0.4 to 0.9 nM

* * *

assay.remarks: Discrete i.v./p.o. KH1 (24) PK study and brain penetration
Assay type: in vivo, female Balb/c mice
condition.notes: female, Balb/c, mouse, whole blood; Oral, 3 mg/kg
measurement.type: Tmax

sample.smiles: Cn1nc(N2CCC(=O)NC2=O)c2ccc(CN3CCN(Cc4ccc(-c5cn(-c6ccc(-c7cn8nccc(C(=O)Nc9cnccc9N9CCOCC9)c8n7)cc6)nn5)nc4)CC3)cc21
measurement.type: Tmax
endpoint.value: 2 h

* * *

Listing of entries alongside the reported fraction unbound at 5 h, 10 μg/mL.
assay.remarks: Plasma protein binding, equilibrium dialysis, mouse
Assay type: in vitro ADME
condition.notes: female, CD1, mouse, 10 μg/mL, 5 h dialysis, read-out: Plasma Protein Binding (Fu) Mu

sample.smiles: Cn1nc(N2CCC(=O)NC2=O)c2ccc(CN3CCN(Cc4ccc(-c5cn(-c6ccc(-c7cn8nccc(C(=O)Nc9cnccc9N9CCOCC9)c8n7)cc6)nn5)nc4)CC3)cc21
fraction unbound at 5 h, 10 μg/mL: 0.0052

sample.smiles: Cn1nc(N2CCC(=O)NC2=O)c2ccc(CN3CCN(CCCc4cn(-c5ccc(-c6cn7nccc(C(=O)Nc8cnccc8N8CCOCC8)c7n6)cc5)nn4)CC3)cc21
fraction unbound at 5 h, 10 μg/mL: 0.021

* * *

assay.remarks: Cassette PK study with 22, 25 and 26
Type: in vivo, female Balb/c mice
condition.notes: female, Balb/c, mouse, whole blood, iv; i.v. bolus cassette 0.5 mg/kg; read-out: Cl_obs
Listing of entries alongside the reported clearance.

compound: O=C1CCC(NC(=O)c2ccc(CN3CCN(Cc4ccc(-c5cn(-c6ccc(-c7cn8nccc(C(=O)Nc9cnccc9N9CCOCC9)c8n7)cc6)nn5)nc4)CC3)cn2)C(=O)N1 (centres unmarked)
clearance (mL/min/kg): 12
--
compound: Cn1nc(N2CCC(=O)NC2=O)c2ccc(CN3CCN(CCCc4cn(-c5ccc(-c6cn7nccc(C(=O)Nc8cnccc8N8CCOCC8)c7n6)cc5)nn4)CC3)cc21
clearance (mL/min/kg): 8

* * *

assay.remarks: RealSOL kinetic solubility
Type: physicochemical
condition.notes: phosphate buffered saline, aqueous buffer, kinetic from dmso stock, PBS pH 7.4, 24 h, 25 °C
Experimental: Solubility was assessed using an 'in-house' developed method known as 'RealSOL'. This solubility method measures the solubility in physiological strength phosphate buffered saline starting from 10 mM DMSO solutions of the test compounds. […] The filtrate from the above was analysed for dissolved drug compound using a truncated UHPLC methodology. […]

compound: Cn1nc(N2CCC(=O)NC2=O)c2ccc(CN3CCN(CCCc4cn(-c5ccc(-c6cn7nccc(C(=O)Nc8cnccc8N8CCOCC8)c7n6)cc5)nn4)CC3)cc21
reported.relation: =
solubility kinetic at 24 h / µM: 2.3

compound: O=C1CCC(NC(=O)c2ccc(CN3CCN(Cc4ccc(-c5cn(-c6ccc(-c7cn8nccc(C(=O)Nc9cnccc9N9CCOCC9)c8n7)cc6)nn5)nc4)CC3)cn2)C(=O)N1 (stereo not drawn)
reported.relation: <
solubility kinetic at 24 h / µM: 1

compound: Cn1nc(N2CCC(=O)NC2=O)c2ccc(CN3CCN(Cc4ccc(-c5cn(-c6ccc(-c7cn8nccc(C(=O)Nc9cnccc9N9CCOCC9)c8n7)cc6)nn5)nc4)CC3)cc21
reported.relation: =
solubility kinetic at 24 h / µM: 2.7

* * *

assay.remarks: Brain binding, equilibrium dialysis
Assay type: in vitro ADME
condition.notes: brain tissue homogenate; brain binding; read-out: measured free fraction in brain
measurement.type: fraction unbound at 5 h, 10 μg/mL

sample.smiles: Cn1nc(N2CCC(=O)NC2=O)c2ccc(CN3CCN(Cc4ccc(-c5cn(-c6ccc(-c7cn8nccc(C(=O)Nc9cnccc9N9CCOCC9)c8n7)cc6)nn5)nc4)CC3)cc21
endpoint.value: 0.0012

* * *

assay.remarks: Discrete i.v./p.o. KH1 (24) PK study and brain penetration
Format: in vivo, female Balb/c mice
condition.notes: female, Balb/c, mouse, whole blood; Oral, 3 mg/kg
measurement.type: AUC(0-t) (ng·h/mL)

sample.smiles: Cn1nc(N2CCC(=O)NC2=O)c2ccc(CN3CCN(Cc4ccc(-c5cn(-c6ccc(-c7cn8nccc(C(=O)Nc9cnccc9N9CCOCC9)c8n7)cc6)nn5)nc4)CC3)cc21
unit.tag: ng·h/mL
endpoint.value: 82.2
